Target: Alpha-bungarotoxin (Bungarus multicinctus) (UniProt P60615)
Sequence (P60615 whole entry, looked up): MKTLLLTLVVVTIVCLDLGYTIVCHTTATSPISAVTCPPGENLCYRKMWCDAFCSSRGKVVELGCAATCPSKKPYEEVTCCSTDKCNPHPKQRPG
Assay: alpha-bungarotoxin binders on microarray, profiling panel, artefact control for SMM control protein annotation, biochemical, small-molecule microarray, Alexa647 label, 635/667 nm fluorescence (AID 1117)
Conditions: alpha-BTX-A647 binding fluorescence, higher = more signal
Quick rule: composite z-score of at least 1 means met, below that means not met.

Field: example entries. Status: answers known.
* O=C1OCCC=C[C@H]2OC34C=CCN(c5ccc(Cl)cc5)C(=O)[C@H]3N(CCO)C(=O)[C@@H]4C12 (stereo partly specified) | not met
* CN(C)CCCC[C@@H]1NC(=O)[C@H]2C[C@@H](C(=O)O)[C@@H](c3cccc(OCCO)c3)N2C1=O | met
* C=CCOC(=O)[C@@H]1[C@H]2C(=O)O[C@H](c3ccccc3)[C@H](c3ccccc3)N2[C@H](c2ccc(OCCOC(=O)[C@H]3C[C@H]4C(=O)NCC(=O)N4[C@H]3c3ccc(O)cc3)cc2)[C@@]12C(=O)Nc1ccc(I)cc12 | met
* COCCOC(=O)N1C(=O)[C@@]2(c3cc(C#CCCO)ccc31)[C@H](C(=O)N1CCN(c3ncccn3)CC1)[C@H]1C(=O)O[C@H](c3ccccc3)[C@H](c3ccccc3)N1[C@@H]2c1ccc(O)cc1 | met
* CC(C)C[C@@H]1NC(=O)[C@H]2C[C@@H](C(=O)NCCCCCCNC(=O)CS)[C@@H](c3ccc(O)cc3)N2C1=O | not met

Now for another entry.
Query: Decide: composite z-score of COC(=O)[C@@]1(Cc2ccc(OC)cc2)[C@H]2c3cc(C(=O)N4CCCC4)n(CCc4ccc(OC)c(Br)c4)c3C[C@H]2CN1C(=O)c1ccccc1 >= 1?
Reply: not met
